Numbers sourced from paper PMC7318034.

- protocolDescription: Part A single-ascending-dose plasma PK in healthy subjects
- Format: in vivo, human
- setupConditions: human, plasma, iv, 1 g, part A cohort 3, single 1.0 g, 3-h i.v. infusion; read-out: AUC0–24
endpointName: AUC(0-t) (ng·h/mL)
The answer is to be given in ng·h/mL; state only the numeric part.

Query: # query: AUC(0-t) of entry `CC1=C[C@@H]2CN(C(=O)N2OS(=O)(=O)O)[C@@H]1C(N)=O`
Reply: 76100

###

- protocolDescription: Part A single-ascending-dose plasma PK in healthy subjects
- Type: in vivo, human
- setupConditions: human, plasma, intravenous, range across single doses of 0.25 g to 8 g; read-out: mean half-life (t1/2)
endpointName: half-life

Query: # query: half-life of entry CC1=C[C@@H]2CN(C(=O)N2OS(=O)(=O)O)[C@@H]1C(N)=O [DUR, Durlobactam]
Reply: 1.5 to 2.8 h

###

- protocolDescription: Part A single-ascending-dose plasma PK in healthy subjects
- Type: in vivo, human
- setupConditions: human, plasma, iv, 1 g, part A cohort 4, single 1.0 g, 2-h i.v. infusion
endpointName: AUC(0-inf) (µg·h/mL)
The answer is to be given in µg·h/mL; state only the numeric part.

Query: # query: AUC(0-inf) of entry CC1=C[C@@H]2CN(C(=O)N2OS(=O)(=O)O)[C@@H]1C(N)=O [DUR, Durlobactam]
Reply: 101

###

- protocolDescription: Part A single-ascending-dose plasma PK in healthy subjects
- Format: in vivo, human
- setupConditions: human, plasma, iv, 8 g, part A cohort 7, single 8.0 g, 3-h i.v. infusion, median
endpointName: Tmax (h)
The answer is to be given in h; state only the numeric part.

Query: # query: Tmax of entry CC1=C[C@@H]2CN(C(=O)N2OS(=O)(=O)O)[C@@H]1C(N)=O [DUR, Durlobactam]
Reply: 3

###

- protocolDescription: Part B multiple-ascending-dose plasma PK in healthy subjects
- Format: in vivo, human
- setupConditions: human, plasma, iv; part B cohort 9, 0.25 g q6h 3-h i.v. infusion, day 8
- Description: This was a 4-part, double-blind, placebo-controlled study (15 cohorts) of DUR administered as a 3-h i.v. infusion (except for cohort 4, in which a 2-h i.v. infusion was evaluated) (see Table S5 in the supplemental material). […] AUC was calculated using the log-linear trapezoidal rule. […]
endpointName: clearance (mL/min)
The answer is to be given in mL/min; state only the numeric part.

Query: # query: clearance of entry `CC1=C[C@@H]2CN(C(=O)N2OS(=O)(=O)O)[C@@H]1C(N)=O`
Reply: 163

###

- protocolDescription: Part B multiple-ascending-dose plasma PK in healthy subjects
- Assay type: in vivo, human
- setupConditions: human, plasma, iv; part B cohort 9, 0.25 g q6h 3-h i.v. infusion, day 8; read-out: Vss
endpointName: Vd (L)
The answer is to be given in L; state only the numeric part.

Query: # query: Vd of entry `CC1=C[C@@H]2CN(C(=O)N2OS(=O)(=O)O)[C@@H]1C(N)=O`
Reply: 18.5

###

- protocolDescription: Urine PK (urinary excretion, renal clearance) in healthy subjects
- setupConditions: human, in vivo, CLr, part C cohort 14, Day 8, placebo subjects (no DUR), n=2
endpointName: CL renal (mL/min)
The answer is to be given in mL/min; state only the numeric part.

Query: # query: CL renal of entry CC1(C)C[C@@H]1C(=O)N/C(=C\CCCCSC[C@H](N)C(=O)O)C(=O)O [CIL, cilastatin]
Reply: 206

###

- protocolDescription: clinical
- setupConditions: human, in vivo, t1/2
endpointName: half-life (h)
The answer is to be given in h; state only the numeric part.

1. CC1=C[C@@H]2CN(C(=O)N2OS(=O)(=O)O)[C@@H]1C(N)=O [DUR, Durlobactam]	1.8

Query: # query: half-life of entry C[C@@H](O)[C@H]1C(=O)N2C(C(=O)O)=C(SCCN=CN)C[C@H]12 [IMI, imipenem, reference compound]
Reply: 1.2

###

- protocolDescription: Part B multiple-ascending-dose plasma PK in healthy subjects
- Type: in vivo, human
- setupConditions: human, plasma, iv; part B cohort 11 (5 subjects), 1.0 g q6h 3-h i.v. infusion, day 8
- Experimental: This was a 4-part, double-blind, placebo-controlled study (15 cohorts) of DUR administered as a 3-h i.v. infusion (except for cohort 4, in which a 2-h i.v. infusion was evaluated) (see Table S5 in the supplemental material). […] AUC was calculated using the log-linear trapezoidal rule. […]
endpointName: clearance (mL/min)
The answer is to be given in mL/min; state only the numeric part.

Query: # query: clearance of entry `CC1=C[C@@H]2CN(C(=O)N2OS(=O)(=O)O)[C@@H]1C(N)=O`
Reply: 155

###

- protocolDescription: Part A single-ascending-dose plasma PK in healthy subjects
- Type: in vivo, human
- setupConditions: human, plasma, iv, 8 g, part A cohort 7, single 8.0 g, 3-h i.v. infusion; read-out: AUC0–t
endpointName: AUC(0-t) (µg·h/mL)
The answer is to be given in µg·h/mL; state only the numeric part.

Query: # query: AUC(0-t) of entry `CC1=C[C@@H]2CN(C(=O)N2OS(=O)(=O)O)[C@@H]1C(N)=O`
Reply: 731

###

- protocolDescription: Part A single-ascending-dose plasma PK in healthy subjects
- Type: in vivo, human
- setupConditions: human, plasma, iv, 1 g, part A cohort 4, single 1.0 g, 2-h i.v. infusion
endpointName: clearance (mL/min)
The answer is to be given in mL/min; state only the numeric part.

Query: # query: clearance of entry CC1=C[C@@H]2CN(C(=O)N2OS(=O)(=O)O)[C@@H]1C(N)=O [DUR, Durlobactam]
Reply: 177

###

- protocolDescription: Part A single-ascending-dose plasma PK in healthy subjects
- Type: in vivo, human
- setupConditions: human, plasma, iv, 2 g, part A cohort 5, single 2.0 g, 3-h i.v. infusion; read-out: AUC0–t
endpointName: AUC(0-t) (µg·h/mL)
The answer is to be given in µg·h/mL; state only the numeric part.

Query: # query: AUC(0-t) of entry `CC1=C[C@@H]2CN(C(=O)N2OS(=O)(=O)O)[C@@H]1C(N)=O`
Reply: 173

###

- protocolDescription: Part C single-dose drug-drug interaction plasma PK in healthy subjects
- setupConditions: human, in vivo, CL, part C cohort 14, DUR 1 g + IMI-CIL 0.5 g + SUL 1 g, day 8
endpointName: clearance
Report the figure along with its unit, number first.

Query: # query: clearance of entry `CC1(C)[C@H](C(=O)O)N2C(=O)C[C@H]2S1(=O)=O`
Reply: 217 mL/min

###

- protocolDescription: clinical
- setupConditions: human, urine, intravenous, 0.5 g
endpointName: CL renal (mL/min)
The answer is to be given in mL/min; state only the numeric part.

Query: # query: CL renal of entry C[C@@H](O)[C@H]1C(=O)N2C(C(=O)O)=C(SCCN=CN)C[C@H]12 [IMI, imipenem, reference compound]
Reply: 102

###

- protocolDescription: Part A single-ascending-dose plasma PK in healthy subjects
- Format: in vivo, human
- setupConditions: human, plasma, iv, 2 g, part A cohort 5, single 2.0 g, 3-h i.v. infusion
endpointName: AUC(0-inf)
Report the figure along with its unit, number first.

Query: # query: AUC(0-inf) of entry `CC1=C[C@@H]2CN(C(=O)N2OS(=O)(=O)O)[C@@H]1C(N)=O`
Reply: 173 µg·h/mL

###

- protocolDescription: Urine PK (urinary excretion, renal clearance) in healthy subjects
- setupConditions: human, urine, intravenous, 8 g, CLr, median, part A cohort 7, single 8 g, n=5
endpointName: CL renal (mL/min)
The answer is to be given in mL/min; state only the numeric part.

Query: # query: CL renal of entry `CC1=C[C@@H]2CN(C(=O)N2OS(=O)(=O)O)[C@@H]1C(N)=O`
Reply: 130

###

- protocolDescription: Part B multiple-ascending-dose plasma PK in healthy subjects
- Format: in vivo, human
- setupConditions: human, plasma, iv, 0.5 g, part B cohort 10 (4 subjects), 0.5 g q6h 3-h i.v. infusion, day 1, median
- Protocol: This was a 4-part, double-blind, placebo-controlled study (15 cohorts) of DUR administered as a 3-h i.v. infusion (except for cohort 4, in which a 2-h i.v. infusion was evaluated) (see Table S5 in the supplemental material). […] AUC was calculated using the log-linear trapezoidal rule. […]
endpointName: Tmax (h)
The answer is to be given in h; state only the numeric part.

Query: # query: Tmax of entry CC1=C[C@@H]2CN(C(=O)N2OS(=O)(=O)O)[C@@H]1C(N)=O [DUR, Durlobactam]
Reply: 3

###

- protocolDescription: Part A single-ascending-dose plasma PK in healthy subjects
- Type: in vivo, human
- setupConditions: human, plasma, iv, 1 g, part A cohort 8 (elderly subjects >65 years), single 1.0 g, 3-h i.v. infusion
endpointName: AUC(0-inf) (µg·h/mL)
The answer is to be given in µg·h/mL; state only the numeric part.

Query: # query: AUC(0-inf) of entry `CC1=C[C@@H]2CN(C(=O)N2OS(=O)(=O)O)[C@@H]1C(N)=O`
Reply: 151
